Here the recorded normalized growth is given for each entry.
- assayRemarks: chemical genetic growth profiling, strain panel (AID 1159580);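 note: tested at 20 µM; growth read once vehicle control cultures reached saturation at 30 °C; 1 = growth at the plate median or of vehicle wells; lower values mean less growth of the strain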
- measurementSetup: S. cerevisiae deletion strains, growth OD, locus YKL160W, strain elf1, stronger effect = lower value
In all, about 5,500 compounds went through this assay and about 2,000 (36%) were called active. Not shown: some 18% with an inconclusive outcome. The list shows a part of the results. Where a SMILES comes first, the peptide text is derived from it. Bridges are numbered along the chain shown (N, C = ends). [ ]: non-standard residue; d: D form. The star is where a group is joined. ξ: configuration not given here. ξDab(CH2SO3H) = NC(CCNCS(=O)(=O)O)C(=O)O; Heptanoyl(6-Me) = CC(C)CCCCC(=O)*; Dab = NCC[CH](N)C(=O)O
Please respond with just the number, no unit label.

molecule	normalized growth
C[C@@H]1CC[C@]2(C(=O)O)CC[C@]3(C)C(=CCC4[C@@]5(C)CC[C@H](O)C(C)(C)C5CC[C@]43C)C2[C@H]1C (stereo not given in full)	1
CNCc1ccccc1	1
Clc1ccccc1C(c1ccccc1)(c1ccccc1)n1ccnc1	0.0633

Prompt: normalized growth for C/C=C(/C)C(=O)O[C@@H]1[C@H](OC(C)=O)[C@@]2(CO)C(CC1(C)C)C1=CCC3[C@@]4(C)CC[C@H](O[C@@H]5O[C@H](C(=O)O)[C@@H](O[C@@H]6O[C@H](CO)[C@@H](O)[C@H](O)[C@H]6O)[C@H](O)[C@H]5O[C@@H]5O[C@H](CO)[C@@H](O)[C@H](O)[C@H]5O)[C@](C)(CO)C4CC[C@@]3(C)[C@]1(C)C[C@H]2O (stereo not given in full) ?
Response: 1.02

Prompt: Query: normalized growth; subject: `Cc1cn([C@H]2C[C@H](N=[N+]=[N-])[C@@H](CO)O2)c(=O)[nH]c1=O`
Response: 0.975

Prompt: What does the record list as normalized growth for C[C@H]1[C@H](C)CC[C@]2(CO)CC[C@]3(C)C(=CCC4[C@@]5(C)CC[C@H](O)C(C)(C)C5CC[C@]43C)[C@H]12 (stereo not given in full) ?
Response: 0.995

Prompt: What does the record list as normalized growth for `O=C(Nc1ccc(C(=O)O)c(O)c1)c1ccccc1` ?
Response: 0.981

Prompt: May I ask what normalized growth has been recorded for `COC1=C[C@@H]2[C@@H]3Cc4ccc(OC)c(O)c4[C@]2(CCN3C)CC1=O` ?
Response: 0.996

Prompt: Entry CO[C@@]12[C@@H]3NC3CN1C1=C(C(=O)C(N)=C(C)C1=O)[C@@H]2COC(N)=O (stereo not given in full) has what normalized growth?
Response: 0.974

Prompt: I would be grateful if you could share the reported normalized growth for `Cc1cc(C(C)(C)C)c(O)c(C(C)(C)C)c1` .
Response: 1

Prompt: Data request, read-out normalized growth, for `FC(F)(F)c1ccccc1-n1ccnc1`
Response: 0.971

Prompt: Requested read-out: normalized growth. Entry: Nc1ccccc1C(=O)CC(N)C(=O)O (stereo not given)
Response: 1.02

Prompt: Any idea what normalized growth was measured for `CCCOc1ccccc1-c1nc2n[nH]nc2c(=O)[nH]1` ?
Response: 0.974

Prompt: What normalized growth value was documented for this molecule, `O=C(CNC(=O)c1ccc(Cl)cc1)NO` ?
Response: 1.01

Prompt: Entry CCC(C)C1NC(=O)C(CCNCS(=O)(=O)O)NC(=O)C(NC(=O)C(CCNCS(=O)(=O)O)NC(=O)C(NC(=O)C(CCNCS(=O)(=O)O)NC(=O)CCCCC(C)C)C(C)O)CCNC(=O)C(C(C)O)NC(=O)C(CCNCS(=O)(=O)O)NC(=O)C(CCNCS(=O)(=O)O)NC(=O)C(C(C)CC)NC1=O (stereo not given) ({Heptanoyl(6-Me)}-[ξDab(CH2SO3H)]T[ξDab(CH2SO3H)][Dab][ξDab(CH2SO3H)]II[ξDab(CH2SO3H)][ξDab(CH2SO3H)]T; lactam 4-C; configuration not given here) has what normalized growth?
Response: 1.02
